ASSAYED_SYSTEM: UniProtKB Q14191
ASSAY_EXPLANATION: WRN ATPase assay (ADP-Glo)
Type: biochemical
SETUP_CONDITIONS: WRN enzymatic activity assay
pIC50: −log10 of the molar value.
Reported pIC50 is given for each of the following molecules.

Consider the reported pIC50 for these molecules:
molecule="CCc1c(N2CCN(C(=O)CNC(=O)c3ncc(C)s3)CC2)c(=O)n2nc(C3=CCOCC3)nc2n1CC(=O)Nc1ccc(C(F)(F)F)cc1Cl [Example 128]" assayed_system="UniProtKB Q14191" attribute_measured=pIC50 experimental_value="6.00 to 7.00"
molecule="CCc1c(N2CCN(C(=O)CNC(=O)c3cncs3)CC2)c(=O)n2nc(C3=CCOCC3)nc2n1CC(=O)Nc1ccc(C(F)(F)F)cc1Cl [Example 268]" assayed_system="UniProtKB Q14191" attribute_measured=pIC50 experimental_value="> 7.00"

*Q* Sample CCc1c(N2CCN(C(=O)C(=O)NOCc3ccccc3)CC2)c(=O)n2nc(C3=CCOCC3)nc2n1CC(=O)Nc1ccc(C(F)(F)F)cc1Cl [Example 337] — what was its pIC50?
*A* > 7.00

* * *

ASSAYED_SYSTEM: WRN [UniPro: Q14191 (WRN_HUMAN), N500-C946] (Homo sapiens (Human), UniProt Q14191)
Sequence (Q14191 500-946): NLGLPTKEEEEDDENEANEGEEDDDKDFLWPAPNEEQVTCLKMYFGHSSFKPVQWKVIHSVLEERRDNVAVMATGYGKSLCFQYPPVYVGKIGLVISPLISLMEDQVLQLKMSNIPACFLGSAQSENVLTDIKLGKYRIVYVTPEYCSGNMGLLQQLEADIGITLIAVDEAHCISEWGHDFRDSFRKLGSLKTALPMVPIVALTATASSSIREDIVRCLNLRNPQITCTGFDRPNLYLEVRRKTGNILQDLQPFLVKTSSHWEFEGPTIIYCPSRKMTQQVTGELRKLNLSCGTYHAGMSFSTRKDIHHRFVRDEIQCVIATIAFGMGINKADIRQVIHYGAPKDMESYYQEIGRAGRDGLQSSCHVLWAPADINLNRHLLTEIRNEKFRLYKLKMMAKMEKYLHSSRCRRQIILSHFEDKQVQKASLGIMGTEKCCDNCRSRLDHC
ASSAY_EXPLANATION: WRN ATPase assay (ADP-Glo)
Format: biochemical
SETUP_CONDITIONS: WRN enzymatic activity assay
pIC50: −log10 of the molar value.
ATTRIBUTE_MEASURED: pIC50

Consider the reported pIC50 for these molecules:
smiles_string=CCc1c(N2CCN(C(=O)CNC(=O)CC(C)C)CC2)c(=O)n2nc(C3=CCOCC3)nc2n1CC(=O)Nc1ccc(C(F)(F)F)cc1Cl attribute_measured=pIC50 experimental_value="> 7.00"
smiles_string=CCc1c(N2CCN(C(=O)CNC(=O)c3cnon3)CC2)c(=O)n2nc(C3=CCOCC3)nc2n1CC(=O)Nc1ccc(C(F)(F)F)cc1Cl attribute_measured=pIC50 experimental_value="> 7.00"
smiles_string=CCc1c(N2CCN(C(=O)C(=O)Nc3nc(C)co3)CC2)c(=O)n2nc(C3=CCOCC3)nc2n1CC(=O)Nc1ccc(C(F)(F)F)cc1Cl attribute_measured=pIC50 experimental_value="> 7.00"

*Q* Sample `CCc1c(N2CCN(C(=O)c3c[nH]c(=O)n(C)c3=O)CC2)c(=O)n2nc(C3=CCOCC3)nc2n1CC(=O)Nc1ccc(C(F)(F)F)cc1Cl` — what was its pIC50?
*A* 6.00 to 7.00

*Q* Sample `CCc1c(N2CCN(C(=O)CNC(=O)c3cccc(NC)c3)CC2)c(=O)n2nc(C3=CCOCC3)nc2n1CC(=O)Nc1ccc(C(F)(F)F)cc1Cl` — what was its pIC50?
*A* > 7.00

*Q* Sample `CCc1c(N2CCN(C(=O)CNC(=O)c3cc(N(C)C)ccc3F)CC2)c(=O)n2nc(C3=CCOCC3)nc2n1CC(=O)Nc1ccc(C(F)(F)F)cc1Cl` — what was its pIC50?
*A* 6.00 to 7.00

* * *

Reported pIC50 is given for each of the following compounds.
ASSAYED_SYSTEM: WRN [UniPro: Q14191 (WRN_HUMAN), N500-C946] (Homo sapiens (Human))
ASSAY_EXPLANATION: WRN unwinding assay (FORKF DNA, fluorescence)
Format: biochemical
SETUP_CONDITIONS: Table 14
pIC50: −log10 of the molar value.

Consider the reported pIC50 for these compounds:
smiles_string=CCc1c(N2CCN(C(=O)C(=O)Nc3ccn[nH]3)CC2)c(=O)n2nc(C3=CCOCC3)nc2n1CC(=O)Nc1ccc(C(F)(F)F)cc1Cl attribute_measured=pIC50 experimental_value="> 7.00"
smiles_string=CCc1c(N2CCN(C(=O)CNC(=O)C3CC3)CC2)c(=O)n2nc(C3=CCOCC3)nc2n1CC(=O)Nc1ccc(C(F)(F)F)cc1Cl attribute_measured=pIC50 experimental_value="> 7.00"

*Q* Lookup: pIC50 / WRN [UniPro: Q14191 (WRN_HUMAN), N500-C946] (Homo sapiens (Human)) / `CCc1c(N2CCN(C(=O)CNC(=O)c3ncnc(C)c3O)CC2)c(=O)n2nc(C3=CCOCC3)nc2n1CC(=O)Nc1ccc(C(F)(F)F)cc1F`
*A* > 7.00

* * *

Reported pIC50 is given for each of the following compounds.
ASSAYED_SYSTEM: WRN [UniPro: Q14191 (WRN_HUMAN), N500-C946] (Homo sapiens (Human), UniProt Q14191)
ASSAY_EXPLANATION: WRN unwinding assay (FORKF DNA, fluorescence)
Assay type: biochemical
SETUP_CONDITIONS: Table 14
Procedure: WRN unwinding assay was initiated to evaluate potential inhibitory effect of compounds for WEN helicase activity. WRN [UniPro: Q14191 (WRN_HUMAN), N500-C946] was expressed and purified in insect system and stored at −80° C. in aliquots. […] Average fluorescence signal of high control (Wells with 1% DMSO) was calculated as High Control (HC). Average fluorescence signal of low control (Wells with no WRN protein) was calculated as Low control (LC). […]
pIC50: −log10 of the molar value.

compound="CCc1c(N2CCN(C(=O)c3c(OC)cn[nH]c3=O)CC2)c(=O)n2nc(C3=CCOCC3)nc2n1CC(=O)Nc1ccc(C(F)(F)F)cc1Cl [Example 314]" attribute_measured=pIC50 experimental_value="< 6.00"
compound="CCc1c(N2CCN(C(=O)C(=O)Nc3ncco3)CC2)c(=O)n2nc(C3=CCOCC3)nc2n1CC(=O)Nc1ccc(C(F)(F)F)cc1F [Example 228]" attribute_measured=pIC50 experimental_value="> 7.00"
compound="CCc1c(N2CCN(C(=O)CNC(=O)c3nc(C)co3)CC2)c(=O)n2nc(C3=CCOCC3)nc2n1CC(=O)Nc1ccc(C(F)(F)F)cc1Cl [Example 301]" attribute_measured=pIC50 experimental_value="6.00 to 7.00"
compound="CCc1c(N2CCN(C(=O)c3cnc4scnc4c3O)CC2)c(=O)n2nc(C3=CCOCC3)nc2n1CC(=O)Nc1ccc(C(F)(F)F)cc1Cl [Example 49]" attribute_measured=pIC50 experimental_value="> 7.00"
compound="CCc1c(N2CCN(C(=O)C(=O)Nc3ccccn3)CC2)c(=O)n2nc(C3=CCOCC3)nc2n1CC(=O)Nc1ccc(C(F)(F)F)cc1F [Example 229]" attribute_measured=pIC50 experimental_value="> 7.00"

*Q* Sample CCc1c(N2CCN(C(=O)CNC(=O)c3cc(F)cc(F)c3)CC2)c(=O)n2nc(C3=CCOCC3)nc2n1CC(=O)Nc1ccc(C(F)(F)F)cc1Cl [Example 115] — what was its pIC50?
*A* > 7.00

*Q* Sample CCc1c(N2CCN(C(=O)c3c[nH][nH]c3=O)CC2)c(=O)n2nc(C3=CCOCC3)nc2n1CC(=O)Nc1ccc(C(F)(F)F)cc1Cl [Example 63] — what was its pIC50?
*A* > 7.00

*Q* Sample CCc1c(N2CCN(C(=O)c3cnc4ncsc4c3O)CC2)c(=O)n2nc(C3=CCOCC3)nc2n1CC(=O)Nc1ccc(C(F)(F)F)cc1Cl [Example 81] — what was its pIC50?
*A* > 7.00

* * *

ASSAYED_SYSTEM: UniProtKB Q14191
ASSAY_EXPLANATION: WRN ATPase assay (ADP-Glo)
Format: biochemical
SETUP_CONDITIONS: WRN enzymatic activity assay
pIC50: −log10 of the molar value.
ATTRIBUTE_MEASURED: pIC50

*Q* Sample `CCc1c(N2CCN(C(=O)Nc3[nH]cnc3C(F)(F)F)CC2)c(=O)n2nc(C3=CCOCC3)nc2n1CC(=O)Nc1ccc(C(F)(F)F)cc1Cl` — what was its pIC50?
*A* 6.00 to 7.00

*Q* Sample `CCc1c(N2CCN(C(=O)CNC(=O)c3c(F)cccc3F)CC2)c(=O)n2nc(C3=CCOCC3)nc2n1CC(=O)Nc1ccc(C(F)(F)F)cc1Cl` — what was its pIC50?
*A* > 7.00

*Q* Sample `CCC(=O)N1CCN(c2c(CC)n(CC(=O)Nc3ccc(C(F)(F)F)cc3Cl)c3nc(C4=CCOCC4)nn3c2=O)CC1` — what was its pIC50?
*A* 6.00 to 7.00

* * *

ASSAYED_SYSTEM: WRN [UniPro: Q14191 (WRN_HUMAN), N500-C946] (Homo sapiens (Human), UniProt Q14191)
ASSAY_EXPLANATION: WRN ATPase assay (ADP-Glo)
Assay type: biochemical
SETUP_CONDITIONS: WRN enzymatic activity assay
pIC50: −log10 of the molar value.
Reported pIC50 is given for each of the following molecules.

Consider the reported pIC50 for these molecules:
molecule="CCc1c(N2CCN(C(=O)CNC(=O)c3cnccc3O)CC2)c(=O)n2nc(C3=CCOCC3)nc2n1CC(=O)Nc1ccc(C(F)(F)F)cc1Cl [Example 280]" attribute_measured=pIC50 experimental_value="> 7.00"
molecule="CCc1c(N2CCN(C(=O)CNC(=O)c3cccc(O)c3F)CC2)c(=O)n2nc(C3=CCOCC3)nc2n1CC(=O)Nc1ccc(C(F)(F)F)cc1Cl [Example 293]" attribute_measured=pIC50 experimental_value="> 7.00"
molecule="CCc1c(N2CCN(C(=O)CNC(=O)c3ccc(OC)cc3F)CC2)c(=O)n2nc(C3=CCOCC3)nc2n1CC(=O)Nc1ccc(C(F)(F)F)cc1Cl [Example 379]" attribute_measured=pIC50 experimental_value="> 7.00"
molecule="CCc1c(N2CCN(C(=O)CNC(=O)c3ccon3)CC2)c(=O)n2nc(C3=CCOCC3)nc2n1CC(=O)Nc1ccc(C(F)(F)F)cc1F [Example 221]" attribute_measured=pIC50 experimental_value="> 7.00"
molecule="CCc1c(N2CCN(C(=O)CNC(=O)CC3COC3)CC2)c(=O)n2nc(C3=CCOCC3)nc2n1CC(=O)Nc1ccc(C(F)(F)F)cc1Cl [Example 273]" attribute_measured=pIC50 experimental_value="6.00 to 7.00"

*Q* Sample CCc1c(N2CCN(C(=O)CNC(=O)c3ncncc3O)CC2)c(=O)n2nc(C3=CCOCC3)nc2n1CC(=O)Nc1ccc(C(F)(F)F)cc1Cl [Example 364] — what was its pIC50?
*A* > 7.00
